Molecular target: Prothrombin (Bos taurus, UniProt P00735)
Assay: Inhibition of bovine thrombin-catalyzed hydrolysis of S-2238
quantity_measured: IC50 (nM)

compound	IC50, nM
O=C1OC[C@H]2OC(O)[C@@H]3OC(=O)c4cc(O)c(O)c(O)c4-c4c(cc(O)c(O)c4O)C(=O)O[C@H]3[C@@H]2OC(=O)c2cc(O)c(O)c(O)c2-c2c1cc(O)c(O)c2O (some centres not stated)	180
O=C1OC[C@@H](O)[C@H]([C@@H]2OC(=O)c3cc(O)c(O)c(O)c3-c3c(O)c(O)c(O)c4c3C(=O)O[C@H]2[C@@H]4O)OC(=O)c2cc(O)c(O)c(O)c2-c2c1cc(O)c(O)c2O	280
O=C(OC[C@H]1O[C@@H](OC(=O)c2cc(O)c(O)c(O)c2)[C@H](OC(=O)c2cc(O)c(O)c(O)c2)[C@@H](OC(=O)c2cc(O)c(O)c(O)c2)[C@@H]1OC(=O)c1cc(O)c(O)c(O)c1)c1cc(O)c(O)c(O)c1	110

I = O=C1OC[C@@H](O)[C@H]([C@@H]2OC(=O)c3cc(O)c(O)c(O)c3-c3c(O)c(O)c(O)c4c3C(=O)O[C@H]2[C@H]4O)OC(=O)c2cc(O)c(O)c(O)c2-c2c1cc(O)c(O)c2O
II = O=C(OC1O[C@@H]2COC(=O)c3cc(O)c(O)c(O)c3-c3c(cc(O)c(O)c3O)C(=O)O[C@H]2[C@H](OC(=O)c2cc(O)c(O)c(O)c2)[C@H]1OC(=O)c1cc(O)c(O)c(O)c1)c1cc(O)c(O)c(O)c1 (some centres not stated)
-- ask I or II : whose IC50 is greater? State your choice using its label.
-- reply I

###

Target: Prothrombin (Bos taurus)
Assay: Inhibition of bovine thrombin-catalyzed hydrolysis of fibrinogen
pIC50: −log10 of the molar value.
quantity_measured: pIC50

Before answering, review these 2 worked examples.
compound	target_system	quantity_measured	numeric_result
O=C1OC[C@H]2OC(O)[C@@H]3OC(=O)c4cc(O)c(O)c(O)c4-c4c(cc(O)c(O)c4O)C(=O)O[C@H]3[C@@H]2OC(=O)c2cc(O)c(O)c(O)c2-c2c1cc(O)c(O)c2O (some centres not stated)	Prothrombin (Bos taurus)	pIC50	6.82
O=C(OC[C@H]1O[C@@H](OC(=O)c2cc(O)c(O)c(O)c2)[C@H](OC(=O)c2cc(O)c(O)c(O)c2)[C@@H](OC(=O)c2cc(O)c(O)c(O)c2)[C@@H]1OC(=O)c1cc(O)c(O)c(O)c1)c1cc(O)c(O)c(O)c1	Prothrombin (Bos taurus)	pIC50	7.30

a = O=C1OC[C@@H](O)[C@H]([C@@H]2OC(=O)c3cc(O)c(O)c(O)c3-c3c(O)c(O)c(O)c4c3C(=O)O[C@H]2[C@@H]4O)OC(=O)c2cc(O)c(O)c(O)c2-c2c1cc(O)c(O)c2O
b = O=C1OC[C@@H](O)[C@H]([C@@H]2OC(=O)c3cc(O)c(O)c(O)c3-c3c(O)c(O)c(O)c4c3C(=O)O[C@H]2[C@H]4O)OC(=O)c2cc(O)c(O)c(O)c2-c2c1cc(O)c(O)c2O
c = O=C(OC1O[C@@H]2COC(=O)c3cc(O)c(O)c(O)c3-c3c(cc(O)c(O)c3O)C(=O)O[C@H]2[C@H](OC(=O)c2cc(O)c(O)c(O)c2)[C@H]1OC(=O)c1cc(O)c(O)c(O)c1)c1cc(O)c(O)c(O)c1 (some centres not stated)
-- ask Order the records, beginning with the lowest pIC50 and ending with the highest. Ranked list of labels, please, in the requested order.
-- reply a, b, c
(a: 7.23, b: 7.59, c: 7.85)
